# systemName: Orexin/Hypocretin receptor type 1 (Mus musculus)
# Sequence (P58307 whole entry): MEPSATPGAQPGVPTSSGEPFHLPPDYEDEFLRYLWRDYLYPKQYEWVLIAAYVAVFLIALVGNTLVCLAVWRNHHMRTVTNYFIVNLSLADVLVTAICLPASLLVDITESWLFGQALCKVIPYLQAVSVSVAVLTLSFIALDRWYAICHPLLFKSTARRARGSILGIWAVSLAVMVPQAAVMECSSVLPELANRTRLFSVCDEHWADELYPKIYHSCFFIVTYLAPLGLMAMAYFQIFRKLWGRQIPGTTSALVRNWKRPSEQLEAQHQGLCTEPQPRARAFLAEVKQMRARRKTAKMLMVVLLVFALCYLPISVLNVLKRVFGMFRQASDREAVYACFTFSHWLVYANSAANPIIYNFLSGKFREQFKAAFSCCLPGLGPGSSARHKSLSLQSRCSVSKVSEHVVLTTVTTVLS
# protocol: Agonist activity at mouse OX1R expressed in HEK293 cells by AP-TGFalpha reporter assay
Overview of reported EC50 across a group of compounds:
Please give the number followed by its unit.

{"columns": ["givenSmiles", "EC50"],
 "data": [
  ["COc1cccc(CC(=O)N(C)[C@@H]2CCCc3ccc(NS(=O)(=O)c4cc(-c5cccc(C(=O)N(C)C)c5)ccc4OC)cc32)c1", "174 nM"]
]}

Please give the measured EC50 for this compound: COc1cccc(CC(=O)N(C)[C@@H]2CCCc3ccc(NS(=O)(=O)c4cc(/C=C/C(=O)Nc5ccncc5)ccc4OC)cc32)c1
154 nM

---

# protocol: Ratio of drug concentration in mouse brain to plasma at 40 mg/kg, sc
assayReadout: Kp
Just the number, please, no unit after it.

Please give the measured Kp for this molecule: COc1cccc(CC(=O)N(C)[C@@H]2CCCc3ccc(NS(=O)(=O)c4cc(-c5cccc(C(=O)N(C)C)c5)ccc4OC)cc32)c1
0.002

---

Overview of reported EC50 across a group of molecules:
# systemName: Orexin/Hypocretin receptor type 1 (Homo sapiens)
# Sequence (O43613 whole entry): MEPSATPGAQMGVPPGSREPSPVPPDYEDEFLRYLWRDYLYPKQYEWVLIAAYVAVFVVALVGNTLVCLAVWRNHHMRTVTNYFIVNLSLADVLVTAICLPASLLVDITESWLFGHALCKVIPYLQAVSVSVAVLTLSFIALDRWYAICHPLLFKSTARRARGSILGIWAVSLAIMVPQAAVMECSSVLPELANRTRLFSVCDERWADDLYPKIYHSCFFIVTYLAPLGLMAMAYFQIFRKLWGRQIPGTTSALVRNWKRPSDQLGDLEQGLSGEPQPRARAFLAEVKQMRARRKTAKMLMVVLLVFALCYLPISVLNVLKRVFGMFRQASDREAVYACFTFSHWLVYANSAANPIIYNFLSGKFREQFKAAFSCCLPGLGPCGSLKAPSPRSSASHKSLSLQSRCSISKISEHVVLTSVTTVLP
Respond numerically; units are nM and should not be typed.

Sample records with EC50:
{"columns": ["molecule", "EC50 [nM]"],
 "data": [
  ["COc1cccc(CC(=O)N(C)C2CCCc3ccc(NS(=O)(=O)c4cc(-c5ccccc5)ccc4OC)cc32)c1 (stereo not drawn)", 5920],
  ["COc1cccc(CC(=O)N(C)C2CCCc3ccc(NS(=O)(=O)c4cc(/C=C/C(N)=O)ccc4OC)cc32)c1 (stereo not drawn)", 581],
  ["COc1cccc(CC(=O)N(C)C2CCCc3ccc(NS(=O)(=O)c4cc(/C=C/C(=O)NCCN(C)C)ccc4OC)cc32)c1 (stereo not drawn)", 271]
]}

Attention now shifts to the item below.
Can you look up EC50 on Orexin/Hypocretin receptor type 1 (Homo sapiens) for COc1cccc(CC(=O)N(C)C2CCCc3ccc(NS(=O)(=O)c4cc(/C=C/C(=O)Nc5ccccc5)ccc4OC)cc32)c1 (stereo not drawn) ?
472

---

Target sequence: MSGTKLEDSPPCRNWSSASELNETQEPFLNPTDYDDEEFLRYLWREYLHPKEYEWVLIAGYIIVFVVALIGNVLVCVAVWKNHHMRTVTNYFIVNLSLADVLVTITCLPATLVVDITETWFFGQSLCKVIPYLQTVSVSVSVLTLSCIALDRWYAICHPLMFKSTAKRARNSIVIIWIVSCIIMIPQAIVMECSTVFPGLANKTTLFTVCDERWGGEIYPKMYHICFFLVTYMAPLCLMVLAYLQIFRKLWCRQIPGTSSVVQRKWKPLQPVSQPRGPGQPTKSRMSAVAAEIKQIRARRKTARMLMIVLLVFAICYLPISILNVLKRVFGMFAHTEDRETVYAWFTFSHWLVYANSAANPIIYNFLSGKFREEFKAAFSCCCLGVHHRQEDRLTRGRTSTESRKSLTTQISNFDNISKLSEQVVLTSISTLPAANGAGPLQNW
assayReadout: EC50 (nM)
Respond numerically; units are nM and should not be typed.

Please give the measured EC50 for this molecule: COc1cccc(CC(=O)N(C)C2CCCc3ccc(NS(=O)(=O)c4cc(/C=C/C(=O)Nc5ccccn5)ccc4OC)cc32)c1 (centres undefined)
955

For COc1cccc(CC(=O)N(C)C2CCCc3ccc(NS(=O)(=O)c4cc(/C=C/C(=O)Nc5cccnc5)ccc4OC)cc32)c1 (centres undefined) then?
295

Just for reference, ChEMBL document CHEMBL5380861 is where these values come from.
